molecular target: human CD33 R69A (human, UniProt P20138 18-364); test: alanine scan, flow cytometry;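 also: HEK293-T cells transiently expressing single-residue alanine mutants of CD33 (alanine swapped to serine), antibody binding read by fluorescence in duplicate, background-subtracted, expressed relative to wild-type CD33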
Sequence (P20138 18-364 R69A limits assumed): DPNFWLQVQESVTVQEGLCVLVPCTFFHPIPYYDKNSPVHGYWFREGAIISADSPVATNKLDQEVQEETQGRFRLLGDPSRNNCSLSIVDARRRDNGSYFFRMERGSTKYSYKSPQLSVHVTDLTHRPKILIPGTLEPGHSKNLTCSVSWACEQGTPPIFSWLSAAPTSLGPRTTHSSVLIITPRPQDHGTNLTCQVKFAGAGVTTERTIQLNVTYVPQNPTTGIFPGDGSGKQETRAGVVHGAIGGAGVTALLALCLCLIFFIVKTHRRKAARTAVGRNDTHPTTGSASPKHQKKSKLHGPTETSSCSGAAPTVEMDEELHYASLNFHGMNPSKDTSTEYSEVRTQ
Readout Type: Mean % WT Binding (% WT)
Answer with a number only, understood to be in % WT.

Query block: Recorded Mean % WT Binding for Refmab #2 (antibody, V domains shown, Full-length format is human IgG1 Fc silent (PG-LALA); The alanine scan used IgG or Fab) VH: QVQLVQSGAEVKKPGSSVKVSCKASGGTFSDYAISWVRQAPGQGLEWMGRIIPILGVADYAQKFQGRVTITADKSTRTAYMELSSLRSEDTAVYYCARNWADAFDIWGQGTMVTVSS VL: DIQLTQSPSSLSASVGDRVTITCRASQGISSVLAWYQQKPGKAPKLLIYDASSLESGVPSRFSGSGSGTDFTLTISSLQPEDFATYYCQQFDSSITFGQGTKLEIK , please?
Result block: 138
